Experiment: Size distribution, polydispersity and Z-potential of LNPs by dynamic light scattering (Malvern Zetasizer)
Type: physicochemical
Conditions: LNPs, standard formulation 50:10:38.5:1.5; DLS
Recorded metric: Z Potential (± D.E.) [mV]
Field note: include the unit after the figure.

Would you please look over these solved cases?
Compound	Z Potential (± D.E.) [mV]
CCCCCCCCCCCCCCCCCCCCCCOC(=O)CCSCC(CC(=O)NCCCn1ccnc1)C(=O)OC(CCCCCCCC)CCCCCCCC (centres unmarked) [VC-LC-0304]	-23.20 mV
CCCCCCCC#CCOC(=O)CCSCCC(C(=O)NC1CCN(C)CC1)C(=O)OC(CCCCCCCC)CCCCCCCC (centres unmarked) [VC-LC-0442]	-4.19 mV

Memo: CCCCCCCCCCCCCCCCCCOC(=O)CCSCCC(C(=O)NCCCn1ccnc1)C(=O)OC(CCCCCCCC)CCCCCCCC (centres unmarked) [VC-LC-0368] , reported Z Potential (± D.E.) [mV]: -15.81 mV

Memo: CCCCCCCCC(CCCCCC)COC(=O)CCSCCC(C(=O)NC1CCN(C)CC1)C(=O)OC(CCCCCCCC)CCCCCCCC (centres unmarked) [VC-LC-0439] , reported Z Potential (± D.E.) [mV]: -6.48 mV

Memo: CCCCCCCCC(CCCCCC)C(=O)NC(CCSCCC(=O)OCC(CC)CCCC)C(=O)NCC1CCN(C)CC1 (centres unmarked) [VC-LC-0493] , reported Z Potential (± D.E.) [mV]: -0.57 mV

Memo: CCCCCCCCC(CCCCCCCC)OC(=O)C(CSCCC(=O)OCCCCCC)CC(=O)NCCCN1CCOCC1 (centres unmarked) [VC-LC-0550] , reported Z Potential (± D.E.) [mV]: -14.52 mV

Memo: CCCCCCCCCCCCCOC(=O)CCSCCC(NC(=O)C(CCCCCC)CCCCCCCC)C(=O)NCCN1CCOCC1 (centres unmarked) [VC-LC-0392] , reported Z Potential (± D.E.) [mV]: -11.14 mV

Memo: CCCCCCCCC(CCCCCC)COC(=O)CCSCCC(NC(=O)C(CCCCCC)CCCCCCCC)C(=O)NCCN(CC)CC (centres unmarked) [VC-LC-0474] , reported Z Potential (± D.E.) [mV]: -7.69 mV

Memo: CCCCCCCCC(CCCCCC)C(=O)NC(CCSCCC(=O)OCCCCCCCC(C)C)C(=O)NCCN1CCN(C)CC1 (centres unmarked) [VC-LC-0180] , reported Z Potential (± D.E.) [mV]: -4.28 mV

Memo: CCCCCCCCCCCCCCCCCCOC(=O)CCSCCC(NC(=O)C(CCCCCC)CCCCCCCC)C(=O)NCCCn1ccnc1 (centres unmarked) [VC-LC-0262] , reported Z Potential (± D.E.) [mV]: -10.53 mV

----------
Experiment: Size distribution, polydispersity and Z-potential of LNPs by dynamic light scattering (Malvern Zetasizer)
Type: physicochemical
Details: LNPs, standard formulation 50:10:38.5:1.5; DLS
For each record, check the reported Z Potential (± D.E.) [mV]: if it is below -3 mV write y, else write n.

### Prompt Is it true that Z Potential (± D.E.) [mV] reported for CCCCCCCCCCCCCCCCCC(=O)NC(CCSCCC(=O)OCC(CCCCCCCCCC)CCCCCCCCCCCC)C(=O)NCCCN1CCOCC1 (stereo not shown) is less than -3 mV?
### Response y

### Prompt Is it true that Z Potential (± D.E.) [mV] reported for CCCCCCCCOC(=O)CCSCC(CC(=O)NCCCn1ccnc1)C(=O)OC(CCCCCCCC)CCCCCCCC (stereo not shown) is less than -3 mV?
### Response y

### Prompt Is it true that Z Potential (± D.E.) [mV] reported for CCCCCCCCCCCCOC(=O)CCSCC(CC(=O)NC1CCN(C)CC1)C(=O)OCC(CCCCCC)CCCCCCCC (stereo not shown) is less than -3 mV?
### Response n

### Prompt Is it true that Z Potential (± D.E.) [mV] reported for CCCCCCCCCCCCCCCCCCOC(=O)CCSCC(CC(=O)NC1CCN(C)CC1)C(=O)OCC(CCCCCC)CCCCCCCC (stereo not shown) is less than -3 mV?
### Response n

### Prompt Is it true that Z Potential (± D.E.) [mV] reported for CCCCCCCCCCCCCCCCOC(=O)CCSCCC(C(=O)NC1CCN(C)CC1)C(=O)OC(CCCCCCCC)CCCCCCCC (stereo not shown) is less than -3 mV?
### Response y

### Prompt Is it true that Z Potential (± D.E.) [mV] reported for CCCCCCCCC(CCCCCC)C(=O)NC(CCSCCC(=O)OCC(CC)CCCC)C(=O)NCCCN(CCO)CCO (stereo not shown) is less than -3 mV?
### Response n
